- SYSTEM NAME: B*0702 (Homo sapiens, UniProt P01889)
- Construct: purchased Beckman Coulter
- ASSAY SUMMARY: iTopia Epitope Discovery System, ELISA-like peptide binding to recombinant HLA
- STUDY CONDITIONS: relative percentage of peptide bonds (FIG. 6); nonamer of VK3-20
REPORTED ENDPOINT: Bond results, Class I HLA molecule B*0702
Note: the reply should be a number with no unit written.

Below are worked cases with known answers.
VYYCQQYGS [Peptide 86, nonamer derived from VK3-20 protein] :: 5
QQYGSSPRT [Peptide 90, nonamer derived from VK3-20 protein] :: 7
LIYGASSRA [Peptide 48, nonamer derived from VK3-20 protein] :: 6
ASQIVSSSY [Peptide 25, nonamer derived from VK3-20 protein] :: 6
GQAPRLLIY [Peptide 42, nonamer derived from VK3-20 protein] :: 6

Inquiry: For QYGSSPRTF [Peptide 91, nonamer derived from VK3-20 protein] , write its Bond results, Class I HLA molecule B*0702.
Reply text: 6

Inquiry: For IVSSSYLAW [Peptide 28, nonamer derived from VK3-20 protein] , write its Bond results, Class I HLA molecule B*0702.
Reply text: 5

Inquiry: For YLAWYQQKP [Peptide 33, nonamer derived from VK3-20 protein] , write its Bond results, Class I HLA molecule B*0702.
Reply text: 6
